# Target entity: UniProtKB Q92508
# Assay notes: Agonist activity at human PIEZO1 overexpressing HEK293-A cells co-expressing mCherry-piezo1 assessed as induction of calcium influx by measuring maximum efficacy in fold change by fluo-3 based real-time flow cytometric analysis
# Assay type: cell-based
# Experimental conditions: filed as agonist
Readout label: fold change (FC)
Simply state the number, no unit and no words.

Bench note: what fold change (FC) did Fc1cccc(Cl)c1CSc1nnc(-c2cnccn2)o1 show? 1.55

Try this compound too: Clc1cccc(Br)c1CSc1nnc(-c2cnccn2)o1 2.9

Try this compound too: Clc1cccc(Cl)c1CSc1nnc(-c2cnccn2)s1 2.4

###

# Target entity: Piezo-type mechanosensitive ion channel component 1 (Homo sapiens, UniProt Q92508)
# Sequence (Q92508 whole entry): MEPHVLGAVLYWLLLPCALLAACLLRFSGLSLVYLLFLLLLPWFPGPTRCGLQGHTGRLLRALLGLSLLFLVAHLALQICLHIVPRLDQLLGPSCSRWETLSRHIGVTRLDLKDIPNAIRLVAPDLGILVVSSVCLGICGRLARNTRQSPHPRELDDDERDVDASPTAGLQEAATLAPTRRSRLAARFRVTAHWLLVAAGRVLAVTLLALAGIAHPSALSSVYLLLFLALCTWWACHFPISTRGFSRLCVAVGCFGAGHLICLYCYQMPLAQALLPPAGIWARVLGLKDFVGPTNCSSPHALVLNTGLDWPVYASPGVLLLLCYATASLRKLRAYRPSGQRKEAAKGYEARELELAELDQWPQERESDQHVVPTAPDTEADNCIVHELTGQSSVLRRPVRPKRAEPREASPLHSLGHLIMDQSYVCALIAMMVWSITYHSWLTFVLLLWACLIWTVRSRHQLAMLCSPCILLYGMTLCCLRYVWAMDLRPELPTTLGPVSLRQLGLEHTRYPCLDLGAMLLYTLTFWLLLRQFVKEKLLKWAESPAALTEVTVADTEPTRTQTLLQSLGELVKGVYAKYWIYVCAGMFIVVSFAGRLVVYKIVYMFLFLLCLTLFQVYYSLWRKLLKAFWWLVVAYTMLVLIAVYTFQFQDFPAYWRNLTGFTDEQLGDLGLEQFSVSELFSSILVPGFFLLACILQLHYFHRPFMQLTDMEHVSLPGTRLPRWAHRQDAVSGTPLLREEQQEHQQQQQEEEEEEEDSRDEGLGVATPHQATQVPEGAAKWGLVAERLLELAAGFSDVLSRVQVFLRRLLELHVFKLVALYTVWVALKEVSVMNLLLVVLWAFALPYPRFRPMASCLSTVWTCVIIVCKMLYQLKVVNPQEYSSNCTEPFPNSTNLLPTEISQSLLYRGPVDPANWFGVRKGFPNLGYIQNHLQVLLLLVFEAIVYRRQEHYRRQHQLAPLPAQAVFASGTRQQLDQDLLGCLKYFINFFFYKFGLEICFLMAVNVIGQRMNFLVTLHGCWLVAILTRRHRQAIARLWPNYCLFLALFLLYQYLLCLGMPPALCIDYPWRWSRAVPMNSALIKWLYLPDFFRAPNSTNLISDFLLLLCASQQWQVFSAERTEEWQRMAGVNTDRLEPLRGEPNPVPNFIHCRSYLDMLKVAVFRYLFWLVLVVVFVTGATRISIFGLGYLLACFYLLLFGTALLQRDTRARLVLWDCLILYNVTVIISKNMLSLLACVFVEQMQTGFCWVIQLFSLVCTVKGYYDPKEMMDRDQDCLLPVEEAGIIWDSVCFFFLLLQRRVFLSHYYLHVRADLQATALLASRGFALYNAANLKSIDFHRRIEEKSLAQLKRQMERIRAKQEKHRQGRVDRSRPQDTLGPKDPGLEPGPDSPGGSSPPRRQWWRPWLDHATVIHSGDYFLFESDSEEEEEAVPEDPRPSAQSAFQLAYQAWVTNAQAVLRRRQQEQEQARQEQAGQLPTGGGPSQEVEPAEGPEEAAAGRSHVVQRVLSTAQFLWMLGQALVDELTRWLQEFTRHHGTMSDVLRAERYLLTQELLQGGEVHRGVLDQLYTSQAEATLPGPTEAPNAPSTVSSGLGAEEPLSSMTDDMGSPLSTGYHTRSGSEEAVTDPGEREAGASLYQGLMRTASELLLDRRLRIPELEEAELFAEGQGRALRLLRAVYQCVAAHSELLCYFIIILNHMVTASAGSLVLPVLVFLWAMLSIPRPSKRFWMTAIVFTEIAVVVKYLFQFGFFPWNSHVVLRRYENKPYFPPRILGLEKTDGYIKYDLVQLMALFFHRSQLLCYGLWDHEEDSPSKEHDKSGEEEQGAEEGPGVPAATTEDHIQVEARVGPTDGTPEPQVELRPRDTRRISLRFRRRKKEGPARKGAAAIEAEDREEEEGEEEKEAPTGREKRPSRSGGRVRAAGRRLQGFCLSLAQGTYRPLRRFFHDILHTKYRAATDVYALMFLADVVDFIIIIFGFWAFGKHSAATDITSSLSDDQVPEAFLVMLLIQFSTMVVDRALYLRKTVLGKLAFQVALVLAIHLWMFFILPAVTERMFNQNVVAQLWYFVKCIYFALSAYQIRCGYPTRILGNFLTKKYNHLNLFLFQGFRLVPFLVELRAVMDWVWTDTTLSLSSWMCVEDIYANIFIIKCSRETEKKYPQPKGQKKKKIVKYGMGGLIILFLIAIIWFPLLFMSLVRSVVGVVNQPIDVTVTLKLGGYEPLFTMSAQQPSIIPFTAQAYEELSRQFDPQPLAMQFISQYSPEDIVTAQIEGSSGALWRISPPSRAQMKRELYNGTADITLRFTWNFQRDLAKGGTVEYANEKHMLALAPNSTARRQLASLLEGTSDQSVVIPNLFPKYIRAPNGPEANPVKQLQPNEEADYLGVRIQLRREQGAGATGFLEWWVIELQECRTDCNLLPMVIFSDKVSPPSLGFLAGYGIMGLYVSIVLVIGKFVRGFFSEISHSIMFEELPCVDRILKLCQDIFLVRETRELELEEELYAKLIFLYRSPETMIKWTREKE
# Assay notes: Agonist activity at human PIEZO1 overexpressing HEK293-A cells co-expressing mCherry-piezo1 assessed as fold change in calcium influx at 0.5 uM by fluo-3 based real-time flow cytometric analysis
# Assay type: cell-based
Readout label: fold change (FC)

Bench note: what fold change (FC) did FC(F)(F)c1ccccc1CSc1nnc(-c2cnccn2)o1 show? < 1.2

Try this compound too: Fc1cccc(Cl)c1CSc1nnc(-c2cnccn2)o1 < 1.2

Try this compound too: Clc1ccccc1CSc1nnc(-c2ccc[nH]2)o1 < 1.2

Try this compound too: FC(F)(F)c1ccc(Cl)c(CSc2nnc(-c3cnccn3)o2)c1 > 1.2

Try this compound too: FC(F)(F)c1ccc(Cl)cc1CSc1nnc(-c2cnccn2)o1 > 1.2

Try this compound too: O=c1oc(-c2cnccn2)nn1Cc1ccccc1Cl < 1.2

Try this compound too: FC(F)(F)c1ccc(C(F)(F)F)c(CSc2nnc(-c3cnccn3)o2)c1 < 1.2

Try this compound too: FC(F)(F)c1cccc(Cl)c1CSc1nnc(-c2cnccn2)o1 > 1.2

Try this compound too: Clc1cccc(Cl)c1CSc1nnc(-c2ccc[nH]2)o1 < 1.2

Try this compound too: Brc1cccc(Br)c1CSc1nnc(-c2cnccn2)o1 > 1.2

Try this compound too: Clc1cccc(Cl)c1CSc1nnc(-c2cnccn2)s1 > 1.2

Try this compound too: FC(F)(F)c1cccc(Br)c1CSc1nnc(-c2cnccn2)o1 > 1.2

###

# Target entity: Piezo-type mechanosensitive ion channel component 1 (Homo sapiens)
# Assay notes: Agonist activity at human PIEZO1 overexpressing HEK293-A cells co-expressing mCherry-piezo1 assessed as induction of calcium influx by measuring maximum efficacy in fold change by fluo-3 based real-time flow cytometric analysis
# Assay type: cell-based
# Experimental conditions: filed as agonist
Readout label: fold change (FC)

Bench note: what fold change (FC) did FC(F)(F)c1ccc(C(F)(F)F)c(CSc2nnc(-c3cnccn3)o2)c1 show? 1.68

Try this compound too: Brc1cccc(Br)c1CSc1nnc(-c2cnccn2)o1 2.5

Try this compound too: Clc1ccc(Cl)c(CSc2nnc(-c3cnccn3)o2)c1 1.25

Try this compound too: FC(F)(F)c1ccccc1CSc1nnc(-c2cnccn2)o1 1.35

Try this compound too: FC(F)(F)c1cccc(Cl)c1CSc1nnc(-c2cnccn2)o1 2.6

Try this compound too: Brc1ccc(Br)c(CSc2nnc(-c3cnccn3)o2)c1 1.9

Try this compound too: FC(F)(F)c1ccc(Cl)cc1CSc1nnc(-c2cnccn2)o1 1.7

Try this compound too: FC(F)(F)c1ccc(Cl)c(CSc2nnc(-c3cnccn3)o2)c1 2.3

Try this compound too: FC(F)(F)c1cccc(Br)c1CSc1nnc(-c2cnccn2)o1 2.7

Try this compound too: Clc1cccc(Cl)c1CSc1nnc(-c2cnccn2)o1 2.07

Try this compound too: FC(F)(F)c1ccc(Br)c(CSc2nnc(-c3cnccn3)o2)c1 2.3

###

# Target entity: Piezo-type mechanosensitive ion channel component 1 (Homo sapiens, UniProt Q92508)
# Assay notes: Agonist activity at human PIEZO1 overexpressing HEK293-A cells co-expressing mCherry-piezo1 assessed as fold change in calcium influx at 15 uM by fluo-3 based real-time flow cytometric analysis
# Format: cell-based
Consider the following molecules; for each one, report its fold change (FC).

Bench note: what fold change (FC) did Brc1cccc(Br)c1CSc1nnc(-c2cnccn2)o1 show? < 1.2

Try this molecule too: Clc1cccc(Br)c1CSc1nnc(-c2cnccn2)o1 < 1.2

Try this molecule too: FC(F)(F)c1ccccc1CSc1nnc(-c2cnccn2)o1 > 1.2

Try this molecule too: Clc1cccc(Cl)c1CNc1nnc(-c2cnccn2)o1 < 1.2

Try this molecule too: Clc1ccccc1CNc1nnc(-c2cnccn2)o1 < 1.2

Try this molecule too: Clc1ccccc1CSc1nnc(-c2cnccn2)o1 < 1.2

Try this molecule too: Ic1ccccc1CSc1nnc(-c2cnccn2)o1 < 1.2

Try this molecule too: Brc1ccccc1CSc1nnc(-c2cnccn2)o1 < 1.2

Try this molecule too: FC(F)(F)c1cccc(Cl)c1CSc1nnc(-c2cnccn2)o1 > 1.2

Try this molecule too: FC(F)(F)c1ccc(Cl)c(CSc2nnc(-c3cnccn3)o2)c1 > 1.2

Try this molecule too: Clc1cccc(Cl)c1CSc1nnc(-c2cnccn2)s1 > 1.2

Try this molecule too: Clc1ccccc1CSc1nnc(-c2cnccn2)[nH]1 < 1.2

Try this molecule too: FC(F)(F)c1ccc(C(F)(F)F)c(CSc2nnc(-c3cnccn3)o2)c1 > 1.2

Try this molecule too: Fc1ccccc1CSc1nnc(-c2cnccn2)o1 < 1.2

Try this molecule too: Clc1ccccc1CSc1nnc(-c2ccc[nH]2)o1 < 1.2

Try this molecule too: O=c1oc(-c2cnccn2)nn1Cc1ccccc1Cl < 1.2

Try this molecule too: Clc1cccc(Cl)c1CSc1nnc(-c2cnccn2)o1 > 1.2

Try this molecule too: c1ccc(CSc2nnc(-c3cnccn3)o2)cc1 < 1.2

Try this molecule too: FC(F)(F)c1cccc(Br)c1CSc1nnc(-c2cnccn2)o1 > 1.2

Try this molecule too: Brc1ccc(Br)c(CSc2nnc(-c3cnccn3)o2)c1 > 1.2

Try this molecule too: FC(F)(F)c1ccc(Cl)cc1CSc1nnc(-c2cnccn2)o1 > 1.2

###

Consider the following compounds; for each one, report its fold change (FC).
# Target entity: UniProtKB Q92508
# Assay notes: Agonist activity at human PIEZO1 overexpressing HEK293-A cells co-expressing mCherry-piezo1 assessed as fold change in calcium influx at 5 uM by fluo-3 based real-time flow cytometric analysis
# Assay type: cell-based

Bench note: what fold change (FC) did Clc1cccc(Cl)c1CSc1nnc(-c2ccc[nH]2)o1 show? < 1.2

Try this compound too: FC(F)(F)c1ccc(Cl)cc1CSc1nnc(-c2cnccn2)o1 > 1.2

Try this compound too: FC(F)(F)c1ccc(C(F)(F)F)c(CSc2nnc(-c3cnccn3)o2)c1 > 1.2

Try this compound too: Clc1ccccc1CNc1nnc(-c2cnccn2)o1 < 1.2

###

Consider the following molecules; for each one, report its fold change (FC).
# Target entity: Piezo-type mechanosensitive ion channel component 1 (Homo sapiens)
# Assay notes: Agonist activity at human PIEZO1 overexpressing HEK293-A cells co-expressing mCherry-piezo1 assessed as fold change in calcium influx at 20 uM by fluo-3 based real-time flow cytometric analysis
# Assay type: cell-based

Bench note: what fold change (FC) did FC(F)(F)c1ccc(Br)c(CSc2nnc(-c3cnccn3)o2)c1 show? > 1.2

Try this molecule too: O=c1oc(-c2cnccn2)nn1Cc1ccccc1Cl < 1.2

Try this molecule too: Fc1cccc(Cl)c1CSc1nnc(-c2cnccn2)o1 > 1.2

Try this molecule too: Clc1ccccc1CSc1nnc(-c2ccc[nH]2)o1 < 1.2

Try this molecule too: FC(F)(F)c1ccc(C(F)(F)F)c(CSc2nnc(-c3cnccn3)o2)c1 > 1.2

Try this molecule too: Clc1cccc(Cl)c1CSc1nnc(-c2cnccn2)s1 > 1.2

Try this molecule too: c1ccc(CSc2nnc(-c3cnccn3)o2)cc1 < 1.2

Try this molecule too: Clc1cccc(Cl)c1CSc1nnc(-c2ccc[nH]2)o1 < 1.2

Try this molecule too: FC(F)(F)c1ccc(Cl)cc1CSc1nnc(-c2cnccn2)o1 > 1.2

Try this molecule too: Clc1ccc(CSc2nnc(-c3cnccn3)o2)c(Cl)c1 < 1.2

Try this molecule too: FC(F)(F)c1cccc(Cl)c1CSc1nnc(-c2cnccn2)o1 > 1.2

Try this molecule too: Clc1cccc(Cl)c1CNc1nnc(-c2cnccn2)o1 < 1.2

Try this molecule too: O=[N+]([O-])c1ccccc1CSc1nnc(-c2cnccn2)o1 < 1.2

Try this molecule too: Fc1cccc(F)c1CSc1nnc(-c2cnccn2)o1 < 1.2

Try this molecule too: Brc1ccc(Br)c(CSc2nnc(-c3cnccn3)o2)c1 > 1.2

Try this molecule too: Brc1ccccc1CSc1nnc(-c2cnccn2)o1 < 1.2

Try this molecule too: Cc1ccccc1CSc1nnc(-c2cnccn2)o1 < 1.2

Try this molecule too: Clc1ccccc1CSc1nnc(-c2cnccn2)o1 < 1.2

###

# Target entity: Piezo-type mechanosensitive ion channel component 1 (Homo sapiens)
# Assay notes: Agonist activity at human PIEZO1 overexpressing HEK293-A cells co-expressing mCherry-piezo1 assessed as induction of calcium influx by fluo-3 based real-time flow cytometric analysis
Lab note - cut at 1000 nM for EC50: Satisfied if strictly below, Not satisfied if not.

Determine if FC(F)(F)c1cccc(Br)c1CSc1nnc(-c2cnccn2)o1 shows EC50 strictly lower than 1000 nM. Satisfied

Try this compound too: FC(F)(F)c1ccc(Br)c(CSc2nnc(-c3cnccn3)o2)c1 Satisfied

Try this compound too: FC(F)(F)c1ccc(Cl)cc1CSc1nnc(-c2cnccn2)o1 Satisfied

Try this compound too: Clc1ccc(Cl)c(CSc2nnc(-c3cnccn3)o2)c1 Satisfied

Try this compound too: Clc1cccc(Br)c1CSc1nnc(-c2cnccn2)o1 Not satisfied

Try this compound too: Fc1cccc(Cl)c1CSc1nnc(-c2cnccn2)o1 Not satisfied

Try this compound too: FC(F)(F)c1ccccc1CSc1nnc(-c2cnccn2)o1 Not satisfied
